System: SK-MEL-2 melanoma
Assay: NCI tumour cell line growth inhibition, 48 h
Give TGI for every item shown.

Reference set (3 entries):
# TGI lookup, item CNC(SC)=C1C(=O)OC(C)(C)OC1=O > 100 µM

Suppose we examine the compound COc1ccc(CC(O)CN2CCOCC2)cc1 (configuration not stated) ; what TGI value has been reported? > 100 µM

I am curious: what TGI value has been reported for CC1CCCc2c1nn(C(=O)/C=C(\N)c1ccccc1)c2N (configuration not stated) ? > 100 µM

Provide TGI values for the following items, in order.
1. CC(CC(=O)Nc1ccc(NC(=O)CC(C)N=NC(N)=S)cc1)N=NC(N)=S (configuration not stated)
2. COc1ccc(Nc2nc3ccccc3nc2-c2cccs2)cc1
3. O=C1c2cccnc2-c2nc(-c3ccncc3)cc3c2c1nc1ccccc13
4. CSc1cc(Cl)c(C)cc1S(=O)(=O)NC(=O)NNc1ccc(Cl)cc1
5. O=c1c2cc3c(cc2[nH]c2ncccc12)OCO3

1: > 100 µM; 2: > 100 µM; 3: > 100 µM; 4: > 100 µM; 5: > 10 µM

====

For each record, write down the corresponding TGI.
Test system: MDA-MB-231 breast
Experiment: NCI tumour cell line growth inhibition, 48 h

What value of measured TGI is listed for O=[N+]([O-])/C(C(Cl)=C(Cl)Cl)=C(\Nc1cccc2cccnc12)SCc1ccccc1 ? > 100 µM

Quick one: TGI for Cc1cc(Nc2nc(SCc3ccc(C(=O)Nc4ccc(F)cc4N)cc3)nn3cccc23)n[nH]1 ? > 100 µM

Given the molecule O=c1c2c3c(sc2n2c(-c4cc(-c5ccccc5)nn4-c4ccccc4)nnc2n1Cc1ccccc1)CCCC3 , what is its reported TGI? > 100 µM

Value lookup for TGI; key = CC(=O)N[C@H](C(=O)N[C@@H](CCCNC(=N)N)C(=O)N[C@@H](CCCCN)C(=O)N[C@@H](CCCNC(=N)N)C(=O)N[C@]1(C)CCCCCC/C=C\CCC[C@@](C)(C(=O)N[C@@H](CCCNC(=N)N)C(=O)N[C@@H](CCC(=O)O)C(=O)N[C@@H](CC(C)C)C(=O)N[C@H](C(=O)N[C@@H](CCC(=O)O)C(N)=O)C(C)C)NC(=O)[C@H](CCC(N)=O)NC(=O)[C@H](CC(C)C)NC(=O)[C@H](CC(C)C)NC(=O)[C@H](CCCNC(=N)N)NC(=O)[C@H](CCCNC(=N)N)NC(=O)[C@H](CC(C)C)NC1=O)C(C)C > 50 µM

Bench note: what TGI did CS(=O)(=O)OCCn1c(=O)n(CCOS(C)(=O)=O)c(=O)n(CCOS(C)(=O)=O)c1=O show? > 100 µM

Quick one: TGI of O=c1c2ccccc2nc2[nH][nH]c(=S)n12 ? > 100 µM

Go through the items and report each one's TGI.
1. Cn1c([N+](=O)[O-])cnc1/C=C1\Oc2cc(Cl)ccc2C1=O
2. C[C@H](Cn1ncnn1)Nc1ncc2cc(Oc3ccc(F)cc3F)c(=O)n(C)c2n1
3. Cn1c2ccccc2c2c(=O)c3ccccc3[nH]c21

1. > 28.5 µM
2. > 25 µM
3. > 100 µM

====

Tested on: HL-60(TB) leukemia
Experiment: NCI tumour cell line growth inhibition, 48 h
Assign TGI to each entry below.

The examples below pair each entry with its known result.
Entry under review: O=C1C=CC(=O)N1Nc1ccc([N+](=O)[O-])cc1[N+](=O)[O-] . Reported TGI? > 51.5 µM

Request the reported TGI associated with C=CCn1c(=O)ccn(COCCO)c1=O > 100 µM

Reported TGI for O=S(=O)(CCOCc1ccc(-c2ccc3ncnc(Nc4ccc(OCc5cccc(F)c5)c(Cl)c4)c3c2)o1)c1ccccc1 : what is it? > 25 µM

In the following, a different compound is considered.
Field request: TGI | item: COc1ccccc1-c1cc(=O)c2ccc(C)nc2[nH]1 > 100 µM
